- System: EPHA2
- runParameters: concentration: 1 μM, replicates: in singlicate; n = 1;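 note: KINOMEscan kinase panel screen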
Output Met for %Inh not less than 1%; output Not met otherwise.

Here's what some known entries look like.
CCn1cnc2c(NCc3ccccc3)ncnc21 ... Not met
CCOc1nccc(-c2c(-c3ccc(F)cc3)ncn2C2CCNCC2)n1 ... Not met
COc1cc(Nc2nccc(N3CCC(NS(=O)(=O)c4ccc(NC(C)=O)cc4)CC3)n2)cc(OC)c1OC ... Met

Query: Check if %Inh >= 1% (inclusive). Item: `Nc1ncc(-c2cn[nH]c2)c2scc(-c3ccc4c(c3)CCN4C(=O)Cc3ccccc3)c12`
Response: Not met

---

A collection of molecules and their measured %Inh
- System: INSRR
- runParameters: concentration: 1 μM, replicates: in singlicate; n = 1
Entry rule: numbers only, all in %.

Example entries begin here.
COc1cccc(CC(=O)N2CCc3cc(-c4cn(C)c5ncnc(N)c45)ccc32)c1 [GSK2608899] ... 13
CCNc1nccc(-c2c(-c3ccc(F)cc3)ncn2C2CCN(C)CC2)n1 ... 100
Cl.N#CCc1ccc(Nc2nccc(Nc3ccc(Oc4ccccc4)cc3)n2)cc1 [GW639905] ... 4
O=C(Nc1n[nH]c2nc(-c3ccccc3O)ccc12)C1CC1 [SB-711880] ... 0

For record COC(=O)Nc1nc2ccc(Oc3ccc(CC(=O)Nc4cc(C(F)(F)F)ccc4F)cc3)cc2[nH]1 [GW680903] the listed %Inh is 0

---

Catalogue of %Inh readings, one per entry.
- System: PIP5K1C
- runParameters: concentration: 1 μM, replicates: in singlicate; n = 1
Dear colleague, please return just the value in %, with no unit written.

Cc1ccc(O)cc1Nc1ccnc2ccc(C(C)(C)C)cc12 ... 0
COc1cc(Nc2ccnc3cc(-c4ccncc4)ccc23)cc(OC)c1OC.Cl ... 36

GET /value?item= `CN(c1ccc(NC(=O)N2CCN(CCCN3CCOCC3)CC2)cc1)c1ccnc(Nc2ccc(CS(C)(=O)=O)cc2)n1.Cl` &field=%Inh returns 26

Entry under test: `Cc1nn2c(=O)cc(N3CCO[C@H](C)C3)nc2n1Cc1cccc(Cl)c1Cl` . Its %Inh was 83

---

- System: DRAK2
- Construct: gene STK17B
- runParameters: concentration: 1 μM, replicates: in singlicate; n = 1
# %Inh annotations
# number only, unit % dropped from output

Solved cases (5 shown):
COc1ccc(C)c(Nc2ccnc(Nc3ccc(-c4cnc[nH]4)cc3)n2)c1.Cl [GW784041] ... 0
Cc1ccc(NC(=O)c2cccc(N3CCCCC3)c2)cc1-c1ccc(C(=O)NCC2CC2)cc1 [GSK1917008] ... 9
CC(=O)Nc1cn2nc(Oc3cccc(NC(=O)c4cccc(C(F)(F)F)c4)c3)ccc2n1 ... 11
CC(C)c1nc(-c2cccc(NS(=O)(=O)c3c(F)cccc3F)c2)c(-c2ccnc(Nc3ccc(N4CCOCC4)nc3)n2)s1.Cl [GSK1723980] ... 0
Cc1nn2c(=O)cc(N3CCO[C@H](C)C3)nc2n1Cc1cccc(Cl)c1Cl [GSK2373693] ... 11

Kindly consider the entry below.
response.value for O=C(Nc1n[nH]c2nc(-c3ccccc3)ccc12)C1CC1 [SB-708999] (field: %Inh) = 0

---

- System: FLT3
- runParameters: concentration: 1 μM, replicates: in singlicate; n = 1
observationType: %Inh
State the value, then name its unit.

Consider CN(c1ccc(NC(=O)Nc2cccc(Cl)c2)cc1)c1ccnc(N)n1.Cl [GW830707] . Its measured %Inh is 97.6%

Value of %Inh reported for the compound O=C(Nc1n[nH]c2nc(-c3cccc(O)c3)ccc12)C1CC1 [SB-711805] is 13%

The recorded %Inh for Fc1cc(Cl)ccc1Nc1ccnc2cc(-c3ccc(CN4CCSCC4)o3)ccc12 [GW560106] is 72%

---

- Test system: PIK3C2B
- runParameters: concentration: 1 μM, replicates: in singlicate; n = 1
%Inh listing for selected compounds.
// note: answer is a bare numeric in %

Cc1cccc(Nc2nc(N[C@H]3CCCC[C@H]3N)ncc2C(N)=O)c1.Cl ... 0
CN(c1ccc(NC(=O)Nc2cccc(Cl)c2)cc1)c1ccnc(N)n1.Cl ... 0
O=C(O)C(F)(F)F.O=c1[nH]ccc2nc(N[C@@H]3CCNC3)nc(Nc3cc(Cl)cc(Cl)c3)c12 ... 13

Lab entry: PIK3C2B assay, compound `Nc1ncc(-c2cn[nH]c2)c2scc(-c3ccc4c(c3)CCN4C(=O)Cc3ccccc3)c12` , %Inh = 0

---

- Test system: MUSK
- runParameters: concentration: 1 μM, replicates: in singlicate; n = 1
observationType: %Inh (%)
# output: bare number, implied unit %

Cn1cc(-c2cnc(N)c3c(-c4ccc5c(c4)CCN5C(=O)Cc4ccccc4)csc23)cn1 [GSK2593074] ... 24

Tested on MUSK, the item COc1cccc(C2=C(Nc3cccc(O)c3)C(=O)NC2=O)c1 [SB-390771] showed %Inh equal to 0

Entry CCn1c(-c2nonc2N)nc2c(-c3ccccc3)ncc(OCCCN)c21.O=C(O)C(F)(F)F.O=C(O)C(F)(F)F [GSK260205] ; assay system MUSK; %Inh recorded at 0

Item CC(C)NCC(Cc1ccccc1)NC(=O)c1cc(Br)c(-c2ccnc3[nH]ccc23)s1.Cl.Cl (stereo not shown) [GSK1383281] was tested on MUSK; the reported %Inh is 0

---

- System: CSNK2A1
- runParameters: concentration: 1 μM, replicates: in singlicate; n = 1
observationType: %Inh (%)
Report as a plain number; the unit % is understood.

Reported %Inh (CSNK2A1) for entry `Cc1nn2c(=O)cc(N3CCO[C@H](C)C3)nc2n1Cc1cccc(Cl)c1Cl` is 50

# value of %Inh, CSNK2A1, item CC(C)NCC(Cc1ccccc1)NC(=O)c1cc(Br)c(-c2ccnc3[nH]ccc23)s1.Cl.Cl (stereo not drawn) = 59

Value (%Inh, CSNK2A1) for record `COc1cccc2c(-c3ccncc3)c(-c3ccc(F)cc3)nn12` = 11

The value of %Inh recorded for COc1cc(Nc2nccc(N3CCC(NC(=O)Nc4ccc5c(c4)OCO5)C3)n2)cc(OC)c1OC (stereo not drawn) when tested on CSNK2A1 reads 4

Form field, %Inh with CSNK2A1, item `O=C(Nc1n[nH]c2nc(-c3ccccc3)ccc12)C1CC1` : 23

`Cc1ccc(Nc2ccnc(Nc3ccc(C)c(F)c3)n2)cc1O.Cl` tested on CSNK2A1 gave %Inh: 0

---

- System: GSK3B
- runParameters: 1 µM; n = 1
Is %Inh at least 40%? Then criterion met. If not, criterion not met.

Below, 2 compounds whose answers are already recorded.
O=C(Nc1n[nH]c2cc(-c3cccs3)ccc12)C1CC1 ... criterion met
COc1ccc(C2=C(Nc3cccc(O)c3)C(=O)NC2=O)cc1 ... criterion not met

Query: Reported %Inh at or above 40%? `COc1cccc(C2=C(Nc3cccc(O)c3)C(=O)NC2=O)c1`
Response: criterion not met

Query: Determine whether measured %Inh meets or exceeds 40% for `O=C(Nc1n[nH]c2nc(-c3ccccc3O)ccc12)C1CC1`
Response: criterion met

Query: Say whether `O=C1NC(=O)C(c2ccccc2Cl)=C1Nc1cccc(Cl)c1` shows %Inh of 40% or more.
Response: criterion not met

---

- Tested on: MAP4K4
- runParameters: concentration: 1 μM, replicates: in singlicate; n = 1
Cut-off 7% on %Inh: below means MET, at or above means NOT MET.

Cl.N#CCc1ccc(Nc2nccc(Nc3ccc(Oc4ccccc4)cc3)n2)cc1 [GW639905] ... NOT MET
Cc1ccc(NC(=O)c2ccc(Cl)c(Cl)c2)cc1-c1ccc(C(=O)Nc2ccncc2)cc1 [GSK1398460] ... MET
CCn1cnc2c(NCc3ccccc3)ncnc21 [SKF-96418] ... MET
Nc1ncc(-c2ccc3nccc(-c4ccncc4)c3c2)cc1S(=O)(=O)N1CCCCC1 [GSK1693850] ... MET
CN(c1ccc(NC(=O)Nc2cccc(Cl)c2)cc1)c1ccnc(N)n1.Cl [GW830707] ... MET

Shift focus to the following entry.
Query: Does the reported %Inh of the following compound sit strictly below 7%? Nc1ncc(-c2cn[nH]c2)c2scc(-c3ccc4c(c3)CCN4C(=O)Cc3ccccc3)c12 [GSK2593067]
Response: NOT MET

---

- Tested on: MAST1
- runParameters: concentration: 1 μM, replicates: in singlicate; n = 1
%Inh vs 20%: less than gives Condition met; not less than gives Condition not met.

Use the examples below as a reference point.
O=C(O)C(F)(F)F.O=c1[nH]ccc2nc(N[C@@H]3CCNC3)nc(Nc3cc(Cl)cc(Cl)c3)c12 [GSK2188764] ... Condition not met
Cc1ccc(NC(=O)c2ccc(Cl)c(Cl)c2)cc1-c1ccc(C(=O)Nc2ccncc2)cc1 [GSK1398460] ... Condition met
Cc1cc(-c2c(-c3ccc(F)cc3)ncn2CCCN2CCOCC2)nc(N)n1 [SB-222517] ... Condition met

Query: Criterion: %Inh strictly below 20%. Is it met by CSc1ccc(NC2=C(c3ccc(Cl)cc3)C(=O)NC2=O)cc1 [SB-317658] ?
Response: Condition not met

Query: Here's an entry: NCCC(NC(=O)c1cc(Br)c(-c2ccnc3[nH]ccc23)s1)c1ccccc1.O=C(O)C(F)(F)F.O=C(O)C(F)(F)F (stereo not drawn) [GSK1307810] . Is its %Inh below 20%?
Response: Condition met

Query: Determine whether this compound shows %Inh lower than 20% (ties excluded): Cc1ccc(Nc2ccnc(Nc3ccc(C)c(F)c3)n2)cc1O.Cl [GW582868]
Response: Condition not met
